test target: Porcine pancreas α-amylase type VI (Sus scrofa, UniProt P00690)
Construct: purchased Sigma-Aldrich
Sequence (P00690 16-511): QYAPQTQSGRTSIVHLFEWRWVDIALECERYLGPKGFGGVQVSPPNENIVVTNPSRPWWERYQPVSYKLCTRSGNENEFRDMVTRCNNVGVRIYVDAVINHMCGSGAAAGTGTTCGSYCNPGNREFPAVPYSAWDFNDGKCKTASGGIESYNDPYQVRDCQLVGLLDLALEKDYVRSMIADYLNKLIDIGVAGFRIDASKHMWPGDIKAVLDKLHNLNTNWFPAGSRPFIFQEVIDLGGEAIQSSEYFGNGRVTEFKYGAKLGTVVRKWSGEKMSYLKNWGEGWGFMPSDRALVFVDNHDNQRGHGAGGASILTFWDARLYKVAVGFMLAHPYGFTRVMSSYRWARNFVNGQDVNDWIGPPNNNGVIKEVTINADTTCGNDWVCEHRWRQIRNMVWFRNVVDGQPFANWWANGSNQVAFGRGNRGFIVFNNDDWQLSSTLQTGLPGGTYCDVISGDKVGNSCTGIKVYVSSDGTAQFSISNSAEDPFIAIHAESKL
assay method text: biochemical
experimental context: isolated compounds; pH 6.8, 37 °C, 30 min; mean ± SD; read-out: α-amylase (IC50 µM)
value kind: IC50 (µM)
Reply with just the number (in µM).

Previously resolved entries follow.
1) O=C(O)[C@H]1O[C@@H](Oc2cc(O)c3c(=O)cc(-c4ccc(O)c(O)c4)oc3c2)[C@H](O)[C@@H](O)[C@@H]1O [Compound 2, luteolin 7-O-glucuronide]
61.5
2) O=c1cc(-c2ccc(O)c(O)c2)oc2cc(O[C@@H]3O[C@H](CO)[C@@H](O)[C@H](O)[C@H]3O)cc(O)c12 [Compound 1, luteolin 7-O-glucoside]
81.7

Next:
Query :: What value of IC50 has been recorded for this entry: COc1ccc(-c2cc(=O)c3c(O)cc(O[C@@H]4O[C@H](C(=O)O)[C@@H](O)[C@H](O)[C@H]4O)cc3o2)cc1O [Compound 3, diosmetin 7-O-glucuronide]
Result :: 76.3

* * *

test target: Porcine pancreas α-amylase type VI (Sus scrofa, UniProt P00690)
Construct: purchased Sigma-Aldrich
assay method text: biochemical
pIC50: −log10 of the molar value.
value kind: pIC50

Query :: I'm curious: which pIC50 was measured for COc1ccc(-c2cc(=O)c3c(O)c(OC)c(OC)cc3o2)cc1 [Compound 4, salvigenin] tested on Porcine pancreas α-amylase type VI (Sus scrofa, UniProt P00690)?
Result :: < 4.00

* * *

test target: α-glucosidase type I from Baker's Yeast (Saccharomyces cerevisiae)
Construct: purchased Sigma-Aldrich
Sequence (P53341 whole entry): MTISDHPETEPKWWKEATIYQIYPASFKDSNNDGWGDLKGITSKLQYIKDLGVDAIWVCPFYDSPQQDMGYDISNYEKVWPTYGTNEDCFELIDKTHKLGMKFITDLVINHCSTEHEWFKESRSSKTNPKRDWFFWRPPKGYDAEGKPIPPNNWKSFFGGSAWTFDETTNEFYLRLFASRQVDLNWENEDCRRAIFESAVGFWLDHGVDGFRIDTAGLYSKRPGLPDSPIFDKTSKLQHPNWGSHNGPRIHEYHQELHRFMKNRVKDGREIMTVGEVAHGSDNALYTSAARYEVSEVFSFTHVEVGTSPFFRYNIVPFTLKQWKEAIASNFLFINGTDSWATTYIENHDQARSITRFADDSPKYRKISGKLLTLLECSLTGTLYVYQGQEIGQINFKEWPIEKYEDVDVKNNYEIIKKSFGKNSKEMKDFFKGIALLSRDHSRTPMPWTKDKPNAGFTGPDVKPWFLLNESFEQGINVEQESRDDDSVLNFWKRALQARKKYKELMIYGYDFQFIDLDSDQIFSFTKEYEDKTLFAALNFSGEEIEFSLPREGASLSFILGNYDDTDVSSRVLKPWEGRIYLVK
assay method text: biochemical
experimental context: isolated compounds; pH 6.9, 37 °C; mean ± SD; read-out: α-glucosidase (IC50 µM)
value kind: IC50

Query :: What value of IC50 has been recorded for this entry: `COc1ccc(-c2cc(=O)c3c(O)c(OC)c(OC)cc3o2)cc1`
Result :: > 50 µM

Entry source: paper PMC4403079
